Values compiled from patent US20230002397A1.

Quick reference for DC50 among some molecules
target: IKZF2 (Homo sapiens, UniProt Q96SW2+Q9UKS7); construct: CRISPR/Cas9—mediated insertion of the HiBiT peptide tag (Promega™) to the N-terminus of the IKZF2 gene locus; endogenous in cells; host or cells: MOLT4 cells, with CRISPR/Cas9 knock-in of HiBiT at the endogenous IKZF2 locus; test: HiBit-IKZF2 assay (HiBiT-Helios degradation in MOLT4 cells); type: cell-based; conditions: concentration at which 50% of HiBiT-Helios degradation was achieved
Sequence (Q9UKS7 whole entry): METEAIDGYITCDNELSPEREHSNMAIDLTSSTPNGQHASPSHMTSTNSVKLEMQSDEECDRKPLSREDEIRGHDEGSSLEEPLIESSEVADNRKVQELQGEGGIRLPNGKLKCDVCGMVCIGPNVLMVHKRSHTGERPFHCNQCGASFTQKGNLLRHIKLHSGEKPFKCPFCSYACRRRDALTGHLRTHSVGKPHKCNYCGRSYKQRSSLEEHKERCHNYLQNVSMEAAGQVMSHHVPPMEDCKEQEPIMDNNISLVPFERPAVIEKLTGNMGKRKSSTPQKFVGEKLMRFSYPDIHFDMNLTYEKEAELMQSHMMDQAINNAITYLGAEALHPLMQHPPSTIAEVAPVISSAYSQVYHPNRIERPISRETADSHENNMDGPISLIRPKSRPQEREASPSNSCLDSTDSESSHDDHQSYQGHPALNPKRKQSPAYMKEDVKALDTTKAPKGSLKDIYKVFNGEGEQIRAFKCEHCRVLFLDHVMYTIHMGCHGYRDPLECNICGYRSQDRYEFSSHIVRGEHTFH
Sequence (Q96SW2 whole entry): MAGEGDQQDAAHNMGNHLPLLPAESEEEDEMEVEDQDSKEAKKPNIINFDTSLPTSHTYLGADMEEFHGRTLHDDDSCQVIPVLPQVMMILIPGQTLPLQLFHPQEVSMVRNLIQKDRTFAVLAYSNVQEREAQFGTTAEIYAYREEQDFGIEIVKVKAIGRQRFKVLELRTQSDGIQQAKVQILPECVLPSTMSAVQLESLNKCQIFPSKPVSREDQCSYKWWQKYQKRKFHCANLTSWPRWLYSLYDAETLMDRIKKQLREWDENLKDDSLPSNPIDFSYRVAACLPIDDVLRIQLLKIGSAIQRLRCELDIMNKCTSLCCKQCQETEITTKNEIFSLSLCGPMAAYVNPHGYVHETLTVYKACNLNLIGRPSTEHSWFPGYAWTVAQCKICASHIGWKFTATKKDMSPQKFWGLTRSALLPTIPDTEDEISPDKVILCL
Sequence (Q16531 whole entry partner): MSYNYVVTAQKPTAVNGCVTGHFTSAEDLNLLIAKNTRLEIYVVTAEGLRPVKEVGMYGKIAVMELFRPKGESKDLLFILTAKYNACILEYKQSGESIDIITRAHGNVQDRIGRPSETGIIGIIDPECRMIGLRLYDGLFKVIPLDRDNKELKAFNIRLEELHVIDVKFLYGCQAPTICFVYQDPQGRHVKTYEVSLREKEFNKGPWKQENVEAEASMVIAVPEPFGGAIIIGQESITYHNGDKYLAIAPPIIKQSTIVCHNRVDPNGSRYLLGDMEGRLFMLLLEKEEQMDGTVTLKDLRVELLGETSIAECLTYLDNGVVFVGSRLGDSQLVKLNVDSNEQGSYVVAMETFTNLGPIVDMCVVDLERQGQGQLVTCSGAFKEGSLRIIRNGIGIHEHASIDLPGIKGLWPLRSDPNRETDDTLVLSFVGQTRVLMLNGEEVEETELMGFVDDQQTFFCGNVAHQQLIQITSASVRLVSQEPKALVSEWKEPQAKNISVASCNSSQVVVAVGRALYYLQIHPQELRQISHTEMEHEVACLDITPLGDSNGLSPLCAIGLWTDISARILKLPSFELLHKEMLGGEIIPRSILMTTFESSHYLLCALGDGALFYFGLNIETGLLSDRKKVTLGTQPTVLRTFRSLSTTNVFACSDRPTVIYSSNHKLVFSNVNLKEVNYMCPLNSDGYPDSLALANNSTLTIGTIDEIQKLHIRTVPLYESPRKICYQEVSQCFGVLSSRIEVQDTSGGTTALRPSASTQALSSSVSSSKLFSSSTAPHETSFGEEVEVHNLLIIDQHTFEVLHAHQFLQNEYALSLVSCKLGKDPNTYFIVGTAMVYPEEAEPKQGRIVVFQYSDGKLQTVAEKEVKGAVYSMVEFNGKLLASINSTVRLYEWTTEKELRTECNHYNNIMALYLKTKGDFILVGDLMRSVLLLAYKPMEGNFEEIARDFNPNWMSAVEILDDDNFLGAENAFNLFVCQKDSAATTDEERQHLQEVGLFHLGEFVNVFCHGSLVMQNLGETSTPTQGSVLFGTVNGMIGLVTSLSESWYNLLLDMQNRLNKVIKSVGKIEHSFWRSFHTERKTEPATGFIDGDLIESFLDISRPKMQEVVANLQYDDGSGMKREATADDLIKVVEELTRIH
Quantity kind: DC50

Molecule	Target	Quantity kind	Measured result
O=C1CCC(N2Cc3cc(C4(O)CCN(Cc5cccnc5Oc5ccccc5)CC4)ccc3C2=O)C(=O)N1 (stereo not shown)	IKZF2 (Homo sapiens, UniProt Q96SW2+Q9UKS7)	DC50	< 10 nM
O=C1CCC(N2Cc3cc(C4CCN(Cc5cccc(Nc6ncccn6)c5F)CC4)ccc3C2=O)C(=O)N1 (stereo not shown)	IKZF2 (Homo sapiens, UniProt Q96SW2+Q9UKS7)	DC50	< 10 nM
O=C1CCC(N2Cc3cc(C4CCN(Cc5ccc(S(=O)(=O)Nc6ccccc6)cc5)CC4)ccc3C2=O)C(=O)N1 (stereo not shown)	IKZF2 (Homo sapiens, UniProt Q96SW2+Q9UKS7)	DC50	< 10 nM
O=C1CCC(N2Cc3cc(C4(O)CCN(Cc5ccc6ncccc6c5)CC4)ccc3C2=O)C(=O)N1 (stereo not shown)	IKZF2 (Homo sapiens, UniProt Q96SW2+Q9UKS7)	DC50	< 10 nM
COc1ccc(CN2CCC(O)(c3ccc4c(c3)CN(C3CCC(=O)NC3=O)C4=O)CC2)cc1 (stereo not shown)	IKZF2 (Homo sapiens, UniProt Q96SW2+Q9UKS7)	DC50	10 to 30 nM
O=C1CCC(N2Cc3cc(C4CCN(Cc5cccc(N6C(=O)Cc7cccnc76)c5)CC4)ccc3C2=O)C(=O)N1 (stereo not shown)	IKZF2 (Homo sapiens, UniProt Q96SW2+Q9UKS7)	DC50	30 to 150 nM
O=C1CCC(N2Cc3cc(C4(O)CCN(Cc5ccc(Cl)cc5)CC4)ccc3C2=O)C(=O)N1 (stereo not shown)	IKZF2 (Homo sapiens, UniProt Q96SW2+Q9UKS7)	DC50	< 10 nM
